Measured melting point by item

# STRUCTURE SMILES, melting point
data = [
    ("N#Cc1cccc(C2=Nc3cc(N4CCS(=O)(=O)CC4)c(C#Cc4ccccc4)cc3NC(=O)C2)c1", "> 250 °C (dec.)"),
    ("COc1cc2c(cc1-c1ccc(F)cc1)NC(=O)CC(c1cccc(-n3ccnc3)c1)=N2", "221 °C (dec.)"),
    ("Cc1cc(-c2cccc(C3=Nc4cc(O)c(-c5ccccc5F)cc4NC(=O)C3)c2)on1", "237 °C"),
    ("N#Cc1ccsc1C1=CC(=O)Nc2cc(-c3ccccc3F)c(O)cc2N1", "242 °C"),
    ("O=C1CC(c2cccc(-n3ccnc3)c2)=Nc2cc(N3CC[C@@H](O)C3)c(-c3ccc(F)cc3)cc2N1", "155 to 158 °C"),
    ("O=C1CC(c2cccc(-n3ccnc3)c2)=Nc2cc(N3CCC(OCCO)CC3)c(-c3ccc(F)cc3)cc2N1", "225 to 227 °C"),
    ("COCCOc1cc2c(cc1C#Cc1ccccc1)NC(=O)CC(c1cccc(I)c1)=N2", "192 °C (dec.)"),
    ("COc1cc2c(cc1-c1ccccc1F)NC(=O)CC(c1cc(C#N)ccc1F)=N2", "> 250 °C"),
    ("CC(C)(C)NC(=O)COc1cc2c(cc1C#Cc1ccccc1)NC(=O)CC(c1cccc(C#N)c1)=N2", "> 250 °C"),
]

###

pKi: −log10 of the molar value.
Please consider the recorded pKi for rat mGlu2 receptor (Rattus norvegicus) in what follows.

# COMPOUND, pKi
rows = [
    ("COc1cc2c(cc1-c1cc(F)ccc1F)NC(=O)CC(c1cccc(-n3ccnn3)c1)=N2 [Example 83]", 7.92),
    ("COc1cc2c(cc1C#Cc1ccccc1)NC(=O)CC(c1cccc(C#N)c1)=N2 [Example 20]", 7.34),
    ("COCCOc1cc2c(cc1C#Cc1ccccc1)NC(=O)CC(c1cccc(I)c1)=N2 [Example 25]", 7.68),
    ("O=C1CC(c2cccc(-n3ccnc3)c2)=Nc2cc(O)c(C#Cc3ccc(F)cc3)cc2N1 [Example 91]", 7.89),
    ("O=C1CC(c2cccc(-n3ccnc3)c2)=Nc2cc(OCCO)c(C#Cc3ccccc3)cc2N1 [Example 42]", 7.49),
    ("COC(=O)CSc1cc2c(cc1C#Cc1ccccc1)NC(=O)CC(c1cccc(C#N)c1)=N2 [Example 12]", 7.29),
    ("N#Cc1cccc(C2=Nc3cc(CC(N)=O)c(C#Cc4ccccc4)cc3NC(=O)C2)c1 [Example 17]", 7.43),
    ("O=C1CC(c2cccc(-n3ccnc3)c2)=Nc2cc(O)c(-c3ccc(F)cc3)cc2N1 [Example 61]", 8.15),
    ("N#Cc1cccc(C2=Nc3cc(Cl)c(C#Cc4ccccc4)cc3NC(=O)C2)c1 [Example 3]", 7.55),
    ("O=C1CC(c2cccc(-n3ccnn3)c2)=Nc2cc(O)c(-c3ccccc3F)cc2N1 [Example 75]", 7.55),
]

###

OBSERVATION TYPE: melting point

# STRUCTURE SMILES, OBSERVATION TYPE, RESULT
records = [
    ("COc1cc2c(cc1-c1ccccc1F)NC(=O)CC(c1cccc(-n3ccnc3)c1)=N2", "melting point", "216 °C (dec.)"),
    ("COc1cc2c(cc1-c1ccccc1F)NC(=O)CC(c1ccnc(C#N)c1)=N2", "melting point", "240 to 242 °C"),
    ("N#Cc1cccc(C2=Nc3cc(N4CCC5(CC4)OCCO5)c(-c4ccccc4F)cc3NC(=O)C2)c1", "melting point", "253 °C"),
    ("CONC(=O)COc1cc2c(cc1C#Cc1ccccc1)NC(=O)CC(c1cccc(C#N)c1)=N2", "melting point", "> 250 °C"),
]

###

Measured melting point by item
OBSERVATION TYPE: melting point

# STRUCTURE SMILES, OBSERVATION TYPE, RESULT
rows = [
    ("N#CCOc1cc2c(cc1-c1ccc(F)cc1)NC(=O)CC(c1cccc(-n3ccnc3)c1)=N2", "melting point", "164 °C"),
    ("O=C1CC(c2cccc(-n3ccnc3)c2)=Nc2cc(CO)c(-c3ccc(F)cc3)cc2N1", "melting point", "180 to 195 °C"),
    ("N#Cc1cccc(C2=Nc3cc(CO)c(-c4ccccc4F)cc3NC(=O)C2)c1", "melting point", "90 to 91 °C"),
    ("COCCOc1cc2c(cc1C#Cc1ccccc1)NC(=O)CC(c1cccc(C#N)c1)=N2", "melting point", "174 to 176 °C"),
    ("COCCOc1cc2c(cc1-c1ccccc1F)NC(=O)CC(c1cccc(C#N)c1)=N2", "melting point", "211 to 213 °C"),
    ("N#Cc1cccc(C2=Nc3cc(O)c(-c4ccc(F)cc4)cc3NC(=O)C2)c1", "melting point", "> 250 °C"),
    ("COc1cc2c(cc1-c1ccccc1F)NC(=O)CC(c1cccc(C#N)c1)=N2", "melting point", "245 to 247 °C"),
    ("COCCOc1cc2c(cc1C#Cc1ccccc1)NC(=O)CC(c1cccc(C(N)=O)c1)=N2", "melting point", "227 to 230 °C (dec.)"),
    ("COC(=O)c1cc2c(cc1C#Cc1ccccc1)NC(=O)CC(c1cccc(C#N)c1)=N2", "melting point", "> 250 °C"),
    ("COc1cc2c(cc1-c1ccccc1F)NC(=O)CC(c1ccc(C#N)s1)=N2", "melting point", "> 250 °C"),
    ("O=C1CC(c2cccc(-n3ccnn3)c2)=Nc2cc(O)c(-c3ccc(F)cc3)cc2N1", "melting point", "> 250 °C"),
    ("COc1cc2c(cc1-c1ccc(F)cc1C)NC(=O)CC(c1cccc(-n3ccnc3)c1)=N2", "melting point", "225 °C"),
    ("O=C1CC(c2cccc(-n3ccnc3)c2)=Nc2cc(CO)c(C#Cc3ccccc3)cc2N1", "melting point", "227 °C"),
    ("COc1cc2c(cc1-c1cc(F)ccc1F)NC(=O)CC(c1cccc(C#N)c1)=N2", "melting point", "251 °C"),
    ("COc1cc2c(cc1-c1cc(F)ccc1F)NC(=O)CC(c1cccc(-n3ccnn3)c1)=N2", "melting point", "241 °C"),
    ("Cc1cc2c(cc1C#Cc1ccccc1)NC(=O)CC(c1cccc(C#N)c1)=N2", "melting point", "237 to 239 °C (dec.)"),
    ("O=C1CC(c2cccc(-n3ccnc3)c2)=Nc2cc(OCCO)c(C#Cc3ccc(F)cc3)cc2N1", "melting point", "220 to 222 °C"),
]

###

# STRUCTURE SMILES, SIGN, melting point, °C
data = [
    ("O=C1CC(c2cccc(-n3ccnc3)c2)=Nc2cc(N3CCOC3=O)c(-c3ccc(F)cc3)cc2N1", "=", 230),
    ("COC1CCN(c2cc3c(cc2C#Cc2ccccc2)NC(=O)CC(c2cccc(-n4ccnc4)c2)=N3)CC1", "=", 222),
    ("O=C1CC(c2cccc(-n3ccnc3)c2)=Nc2cc(O)c(-c3ccc(F)cc3)cc2N1", "=", 250),
    ("N#Cc1cccc(C2=Nc3cc(O)c(-c4ccccc4F)cc3NC(=O)C2)c1", ">", 250),
    ("O=C1CC(c2cccc(-n3ccnc3)c2)=Nc2cc(OCCO)c(-c3ccc(F)cc3)cc2N1", "=", 225),
    ("O=C1CC(c2cccc(-n3ccnn3)c2)=Nc2cc(O)c(C#Cc3ccc(F)cc3)cc2N1", "=", 243),
    ("N#Cc1cccc(C2=Nc3cc(CO)c(C#Cc4ccccc4)cc3NC(=O)C2)c1", ">", 255),
    ("O=C1CCN(c2cc3c(cc2-c2ccc(F)cc2)NC(=O)CC(c2cccc(-n4ccnc4)c2)=N3)CC1", "=", 204),
    ("O=C1CCN(c2cc3c(cc2-c2ccccc2F)NC(=O)CC(c2cccc(-n4ccnc4)c2)=N3)CC1", "=", 230),
]

###

Measured melting point by item

# MOLECULE, melting point
data = [
    ("CCOCc1cc2c(cc1C#Cc1ccccc1)NC(=O)CC(c1cccc(C#N)c1)=N2", "229 °C"),
    ("O=C1CC(c2cccc(-n3ccnc3)c2)=Nc2cc(OCCO)c(C#Cc3ccccc3)cc2N1", "224 to 227 °C"),
    ("N#Cc1cccc(C2=Nc3cc(OCC(O)CO)c(C#Cc4ccccc4)cc3NC(=O)C2)c1 (centres unmarked)", "230 to 234 °C (dec.)"),
    ("O=C1CC(c2cccc(-n3ccnn3)c2)=Nc2cc(O)c(-c3ccccc3F)cc2N1", "> 250 °C"),
    ("N#CCOc1cc2c(cc1C#Cc1ccccc1)NC(=O)CC(c1cccc(-n3ccnc3)c1)=N2", "214 °C"),
    ("N#CCc1cc2c(cc1C#Cc1ccccc1)NC(=O)CC(c1cccc(C#N)c1)=N2", "262 °C (dec.)"),
    ("O=C1CC(c2cccc(-n3ccnc3)c2)=Nc2cc(N3CCC4(CC3)OCCO4)c(-c3ccccc3F)cc2N1", "225 °C"),
    ("N#Cc1cccc(C2=Nc3cc(N4CCC5(CC4)OCCO5)c(C#Cc4ccccc4)cc3NC(=O)C2)c1", "239 to 243 °C (dec.)"),
    ("N#CCOc1cc2c(cc1C#Cc1ccccc1)NC(=O)CC(c1cccc(C#N)c1)=N2", "212 °C"),
    ("N#Cc1cccc(C2=Nc3cc(Cl)c(-c4ccccc4)cc3NC(=O)C2)c1", "242 to 244 °C (dec.)"),
    ("COc1cc2c(cc1C#Cc1ccccc1)NC(=O)CC(c1cccc(C#N)c1)=N2", "> 250 °C"),
    ("COC(=O)Cc1cc2c(cc1C#Cc1ccccc1)NC(=O)CC(c1cccc(C#N)c1)=N2", "236 °C (dec.)"),
    ("CSc1nccn1-c1cccc(C2=Nc3cc(O)c(-c4ccccc4F)cc3NC(=O)C2)c1", "> 250 °C"),
    ("O=C1CC(c2cccc(-n3ccnc3)c2)=Nc2cc(O)c(C#Cc3ccc(F)cc3)cc2N1", "247 °C"),
    ("COCCOc1cc2c(cc1C#Cc1ccccc1)NC(=O)CC(c1cccc(-n3ccnc3)c1)=N2", "187 to 189 °C"),
    ("N#Cc1cc(C2=Nc3cc(O)c(-c4ccccc4F)cc3NC(=O)C2)ccn1", "> 250 °C"),
    ("O=C1CC(c2cccc(-n3ccnc3)c2)=Nc2cc(CO)c(C#Cc3ccc(F)cc3)cc2N1", "234 °C (dec.)"),
]
